Measured Population Mitotic Cells (%), listed per entry.
system: Fibroblast; assay: Multiplex assay against human fibroblast; type: toxicity, cell-based; conditions: 24 h, 1 µM, compound concentration 1 uM, replicate 1
reported_metric: Population Mitotic Cells (%)

• CC(C)OC(=O)N1CCC(Oc2ncnc3c2cnn3-c2ccc(S(C)(=O)=O)cc2F)CC1 = 33
• CCCSc1nc(N[C@@H]2C[C@H]2c2ccc(F)c(F)c2)c2nnn([C@@H]3C[C@H](OCCO)[C@@H](O)[C@H]3O)c2n1 = 56
• CC(C)Oc1ccccc1C(=O)Nc1ccccc1C(=O)Nc1cccc(S(=O)(=O)C(F)(F)F)c1 = 38
• CC1=C(C(=O)Nc2cc3cn[nH]c3cc2F)C(c2ccc(C(F)(F)F)cc2)CC(=O)N1 (stereo not drawn) = 45
• COc1cc2ncn(-c3cc(OCc4ccccc4C(F)(F)F)c(C(N)=O)s3)c2cc1OC [GW843682X] = 38
• Cc1ccc2c(c1)c1c(n2CCc2ccc(C)nc2)CCN(C)C1 [LATREPIRDINE] = 40
• CC(C)(C)NC[C@H](O)COc1nsnc1N1CCOCC1 = 39
• C=CC(=O)Nc1ccc2[nH]c(=O)n(C3CCN(Cc4ccc(-c5nc6cc[nH]c(=O)c6cc5-c5ccccc5)cc4)CC3)c2c1 = 33
• C=CC(=O)Nc1cccc(Oc2nc(Nc3ccc(N4CCN(C)CC4)cc3OC)ncc2Cl)c1 = 38
• O=C(c1cc2c(cc1F)OC(c1ccc(F)cc1)(c1ccc(Cl)cc1Cl)O2)N1CCOCC1 (stereo not drawn) = 73
• CCc1ccc(OCc2ccccc2C(=O)Nc2ccc3nc(C)cc(N)c3c2)cc1.Cl = 20
• CC(C)c1noc(N2CCC(COc3ccc(-c4ccc(S(C)(=O)=O)cc4)nc3)CC2)n1 = 61
• Cc1nc(N2CC[C@H](O)C2)ncc1-c1cc(C(F)(F)F)cc2[nH]ncc12 = 51
• C=CC(=O)Nc1cccc(Sc2nc(Nc3ccc(N4CCN(C)CC4)cc3)ncc2Cl)c1 = 25
• Cl.O=C(O)c1cc(-c2ccc(C3CCNCC3)cc2)c2ccc(-c3ccc(C(F)(F)F)cc3)cc2c1 = 37
• COc1cc(Nc2nccc(-c3cnn4nc(OC)ccc34)n2)cc(C(F)(F)F)c1 = 25
• O=c1cc(N2CCOCC2)oc2c(-c3cccc4c3sc3ccccc34)cccc12 = 42
• CC(C)NC(=O)N1CC[C@H](NC2=Nc3cc(F)ccc3N(CC(F)F)c3ccc(Cl)cc32)C1 = 37
